# assay.procedure: qHTS of small molecules that selectively kill Giardia lamblia: Hit Validation.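 Further: viability measured as ATP content by luminescence so killing lowers signal; trophozoites exposed to compounds for 48 h anaerobically at 37 °C; nearly all actives have a fitted effect of over 65% in size.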
# setup.conditions: Giardia lamblia trophozoite viability, dose-response; series mostly up to 38.3 µM
Out of some 1,300 compounds screened, about 1,000 (77%) were called active. Inconclusive results (about 7%) are left out. The call rests on the fitted dose curve; in most records, active means well fitted inhibition curve with a large enough effect; inconclusive means small, poorly fitted or top-dose-only effect; inactive means no such curve, though single readings can be large or run the other way. So high a share suggests a set chosen from earlier hits. This is one part of the list.
Labels: active, inactive

>  <compound>
O=C(COc1cccnc1[N+](=O)[O-])Nc1cc(S(=O)(=O)N2CCCCC2)ccc1Cl

>  <group.label>
active

$$$$
>  <compound>
CC(=O)N1CCN(c2ccc(S(C)(=O)=O)cc2[N+](=O)[O-])CC1

>  <group.label>
active

$$$$
>  <compound>
O=[n+]1c2c(n([O-])c3cc(Cl)ccc31)CCCC2

>  <group.label>
active

$$$$
>  <compound>
COc1cccc(CSc2nc3ccncc3[nH]2)c1

>  <group.label>
active

$$$$
>  <compound>
O=[N+]([O-])c1cc(/C=N/Nc2nc(N3CCCCC3)nc(N3CCCCC3)n2)ccc1O

>  <group.label>
active

$$$$
>  <compound>
Cc1ccc(OCC(=O)Nc2cc(S(=O)(=O)N3CCOCC3)ccc2Cl)c([N+](=O)[O-])n1

>  <group.label>
active

$$$$
>  <compound>
O=C(c1ccc(CSc2nc3ccncc3[nH]2)cc1)N1CCCCCC1

>  <group.label>
active

$$$$
>  <compound>
O=C(O)C1CCN(c2ccccc2[N+](=O)[O-])CC1

>  <group.label>
active

$$$$
>  <compound>
O=C(c1ccc([N+](=O)[O-])o1)N1CCc2ccccc21

>  <group.label>
active

$$$$
>  <compound>
CN(C(=O)c1ccc(NC(=O)Cc2ccc(NC(=O)C3CCCN(S(=O)(=O)c4cccc([N+](=O)[O-])c4)C3)cc2)cc1)C1CCCC1 (configuration not stated)

>  <group.label>
inactive

$$$$
>  <compound>
C/C(=N/NC(=O)C(O)(c1ccccc1)c1ccccc1)c1ccc([N+](=O)[O-])o1

>  <group.label>
active

$$$$
>  <compound>
Clc1ccccc1CSc1nc2ccncc2[nH]1

>  <group.label>
active

$$$$
>  <compound>
O=C(NNC(=O)c1ccc([N+](=O)[O-])o1)c1ccccc1

>  <group.label>
active

$$$$
>  <compound>
O=[n+]1c2c(n([O-])c3cc(Br)ccc31)CCCC2

>  <group.label>
active

$$$$
>  <compound>
COC(=O)c1sc(NC(=O)c2ccc(OC)cc2OC)nc1C

>  <group.label>
active

$$$$
>  <compound>
O=C(c1ccc([N+](=O)[O-])o1)N1CCc2ccccc2C1

>  <group.label>
active

$$$$
>  <compound>
CCN(C(=O)N(CC)c1ccccc1)c1ccccc1

>  <group.label>
inactive

$$$$
>  <compound>
COc1cc2c(cc1OC)CN(Cc1cc(=O)oc3c(C)c(C)ccc13)CC2

>  <group.label>
inactive

$$$$
>  <compound>
CN(Cc1ccccc1)C(=O)c1ccc([N+](=O)[O-])o1

>  <group.label>
active

$$$$
>  <compound>
O=[N+]([O-])c1ccc(/C=N/Nc2nc(N3CCCC3)nc(N3CCCC3)n2)o1

>  <group.label>
active

$$$$
>  <compound>
COc1cc2c(cc1OC)CN(C(=O)c1ccc([N+](=O)[O-])o1)CC2

>  <group.label>
active

$$$$
>  <compound>
COc1ccc(C(=O)Nc2ccc(C)cn2)c(OC)c1

>  <group.label>
active

$$$$
